Each entry below carries its recorded pIC50.
Molecular target: Arylamine N-acetyltransferase 2 (Mus musculus)
Sequence (P50295 whole entry): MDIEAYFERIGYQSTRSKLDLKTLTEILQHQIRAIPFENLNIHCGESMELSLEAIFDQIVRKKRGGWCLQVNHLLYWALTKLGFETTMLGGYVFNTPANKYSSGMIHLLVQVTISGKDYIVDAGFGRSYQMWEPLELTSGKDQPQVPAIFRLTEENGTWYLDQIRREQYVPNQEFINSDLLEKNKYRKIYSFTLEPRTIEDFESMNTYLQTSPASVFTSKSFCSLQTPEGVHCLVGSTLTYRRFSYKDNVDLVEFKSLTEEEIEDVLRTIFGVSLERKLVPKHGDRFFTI
Experiment: Inhibition of mouse recombinant NAT2 assessed as hydrolysis of acetyl coA using PABA as substrate by Ellman's method
pIC50: −log10 of the molar value.

- Entry Smiles: "O=C1NC(=S)S/C1=C\\c1cccc2ccccc12"
  Subject Of Test: "Arylamine N-acetyltransferase 2 (Mus musculus)"
  pIC50: "< 4.52"
- Entry Smiles: "CN1C(=O)/C(=C/Cc2ccccc2)SC1=S"
  Subject Of Test: "Arylamine N-acetyltransferase 2 (Mus musculus)"
  pIC50: "< 4.52"
- Entry Smiles: "NN1C(=O)/C(=C/c2ccc(Cl)cc2)SC1=S"
  Subject Of Test: "Arylamine N-acetyltransferase 2 (Mus musculus)"
  pIC50: 5.24
- Entry Smiles: "O=C1NC(=S)S/C1=C\\c1ccc(Br)cc1"
  Subject Of Test: "Arylamine N-acetyltransferase 2 (Mus musculus)"
  pIC50: "< 4.52"
- Entry Smiles: "Cc1cccc(/C=C2\\SC(=S)N(C)C2=O)c1"
  Subject Of Test: "Arylamine N-acetyltransferase 2 (Mus musculus)"
  pIC50: "< 4.52"
- Entry Smiles: "CN1C(=O)/C(=C/c2cccc3ccccc23)SC1=S"
  Subject Of Test: "Arylamine N-acetyltransferase 2 (Mus musculus)"
  pIC50: "< 4.52"
- Entry Smiles: "COc1ccccc1/C=C1\\SC(=S)N(C)C1=O"
  Subject Of Test: "Arylamine N-acetyltransferase 2 (Mus musculus)"
  pIC50: "< 4.52"
- Entry Smiles: "COc1cccc(/C=C2\\SC(=S)N(C)C2=O)c1"
  Subject Of Test: "Arylamine N-acetyltransferase 2 (Mus musculus)"
  pIC50: 4.87
- Entry Smiles: "Cc1ccc(/C=C2\\SC(=S)N(C)C2=O)cc1"
  Subject Of Test: "Arylamine N-acetyltransferase 2 (Mus musculus)"
  pIC50: "< 4.52"
- Entry Smiles: "Cc1ccccc1/C=C1\\SC(=S)N(C)C1=O"
  Subject Of Test: "Arylamine N-acetyltransferase 2 (Mus musculus)"
  pIC50: 5.36
- Entry Smiles: "CN1C(=O)/C(=C/c2ccc3ccccc3c2)SC1=S"
  Subject Of Test: "Arylamine N-acetyltransferase 2 (Mus musculus)"
  pIC50: 5.33
- Entry Smiles: "O=C1NC(=S)S/C1=C\\c1ccccc1F"
  Subject Of Test: "Arylamine N-acetyltransferase 2 (Mus musculus)"
  pIC50: "< 4.52"
- Entry Smiles: "O=C1NC(=S)S/C1=C\\c1cccc(F)c1"
  Subject Of Test: "Arylamine N-acetyltransferase 2 (Mus musculus)"
  pIC50: 5.17
- Entry Smiles: "CN1C(=O)/C(=C/c2ccc(F)cc2)SC1=S"
  Subject Of Test: "Arylamine N-acetyltransferase 2 (Mus musculus)"
  pIC50: 4.68
- Entry Smiles: "CN1C(=O)/C(=C/c2ccccc2)SC1=S"
  Subject Of Test: "Arylamine N-acetyltransferase 2 (Mus musculus)"
  pIC50: "< 4.52"
- Entry Smiles: "O=C1NC(=O)/C(=C/c2ccc3ccccc3c2)S1"
  Subject Of Test: "Arylamine N-acetyltransferase 2 (Mus musculus)"
  pIC50: "< 4.52"
- Entry Smiles: "C/C(=C1/SC(=S)N(C)C1=O)c1ccccc1"
  Subject Of Test: "Arylamine N-acetyltransferase 2 (Mus musculus)"
  pIC50: "< 4.52"
